# self-cleavage values compiled below
B1: Hairpin Ribozyme (parent)
chain: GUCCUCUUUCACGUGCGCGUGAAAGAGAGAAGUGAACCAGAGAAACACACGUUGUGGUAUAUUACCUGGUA

Variants of: B1
Test: self-cleavage, relative activity (ratio to wild type); higher = more cleavage; co-transcriptional
measured parameter: self-cleavage

sequence record: GUCCUCUUUCACGUGCGCGUGAAAGAGAGAAGUGAACCAGAGAAACACAAGUUGUGGUAUAUUAACUGGUA [C50A C65A]
measured parameter: self-cleavage
endpoint result: 0.142

sequence record: GUCCUCUUUCACGUGCGCGUGAAAGAGAGAAGUGAACCAGAGAAACACACGUUAUGGUUUAUUACCUGGUA [G54A A59U]
measured parameter: self-cleavage
endpoint result: 0.148

sequence record: GUCCUCUUUCACGUGCGCGUGACAGAGCGAAGUGAACCAGAGAAACACACGUUGUGGUAUAUUACCUGGUA [A23C A28C]
measured parameter: self-cleavage
endpoint result: 0.349

sequence record: GUCCUCUUUCACGUGCGCGUGAAAGAGAGAAGUGAACCAGAGAAACACACGUUGUAGUAUAUUACCUAGUA [G56A G68A]
measured parameter: self-cleavage
endpoint result: 0.119

sequence record: GUCCUCUUUCACGCGCGCGUGAAAGAGAGAAGUGAACCAGAGAAACACACGUAGUGGUAUAUUACCUGGUA [U14C U53A]
measured parameter: self-cleavage
endpoint result: 1.18

sequence record: GUCCUCUUUCACGUGCGCGUGAAAGGGAGAAGUGAACCAGAGAAACACACGUUGUGGUAUAUAACCUGGUA [A26G U63A]
measured parameter: self-cleavage
endpoint result: 0.101

sequence record: GUCCUCUUUCACGUGCGCGUGAAAGAGAUCAGUGAACCAGAGAAACACACGUUGUGGUAUAUUACCUGGUA [G29U A30C]
measured parameter: self-cleavage
endpoint result: 0.154

sequence record: GUCCUCUUUCACGUGCGCGUGAAAGAGAGAAGUGAACCACAGAAACACACGUUUUGGUAUAUUACCUGGUA [G40C G54U]
measured parameter: self-cleavage
endpoint result: 0.0743

sequence record: GUCCUCUUUCACGUGCGCUUGAAAGUGAGAAGUGAACCAGAGAAACACACGUUGUGGUAUAUUACCUGGUA [G19U A26U]
measured parameter: self-cleavage
endpoint result: 0.682

sequence record: GUCCUCUUUCACGUGCGCGUGAAAGAGAGAAGUGAACCAGAGGAACACACGUUGUGGUAUAUUACCUGGAA [A43G U70A]
measured parameter: self-cleavage
endpoint result: 0.225

sequence record: GUCCUCUUUCACGUGCGCGUGAACGAGAGAAGUGAACCAGAGAAGCACACGUUGUGGUAUAUUACCUGGUA [A24C A45G]
measured parameter: self-cleavage
endpoint result: 0.171

sequence record: GUCUUCUUUCACGUGCGCGUGAAAGAGAGAAGUGAACCAGAGAAACACACGUUUUGGUAUAUUACCUGGUA [C4U G54U]
measured parameter: self-cleavage
endpoint result: 0.198

sequence record: GUCCUCUUUCACGUGCGCGUGAAAGAGAGAAGUGAACCUGAGAAACACCCGUUGUGGUAUAUUACCUGGUA [A39U A49C]
measured parameter: self-cleavage
endpoint result: 0.145

sequence record: GUCCUCUUUCACGUGCGCGUGAAAGAGAGAAGUGAACCAUAGAAACACACGUUGUUGUAUAUUACCUGGUA [G40U G56U]
measured parameter: self-cleavage
endpoint result: 0.111

sequence record: GUCCUCUUUCACGUGCGCGUGAAACAGGGAAGUGAACCAGAGAAACACACGUUGUGGUAUAUUACCUGGUA [G25C A28G]
measured parameter: self-cleavage
endpoint result: 0.883

sequence record: GUCCUCUUUCACGUGCGCGUGAAAGAGAGAAGUGAACCAGAGAAACAGACGUUGUGGUAUAUUACCUAGUA [C48G G68A]
measured parameter: self-cleavage
endpoint result: 0.226

sequence record: GUCCUCUUUCACGUGCGCGUGAAAGAGAGAAGUGGACCAUAGAAACACACGUUGUGGUAUAUUACCUGGUA [A35G G40U]
measured parameter: self-cleavage
endpoint result: 0.161

sequence record: GUCCUCUUUCACGUGCGCGUGAGAGAGGGAAGUGAACCAGAGAAACACACGUUGUGGUAUAUUACCUGGUA [A23G A28G]
measured parameter: self-cleavage
endpoint result: 1.23

sequence record: GCCCUCUUUCACGUGCGCGUGAAAGAGAGAAGUGAACCAGAGAAACACACGUUGAGGUAUAUUACCUGGUA [U2C U55A]
measured parameter: self-cleavage
endpoint result: 0.0763

sequence record: GUCCUCUUUCACGUGCGCGUGAAAGAGAGAGGUCAACCAGAGAAACACACGUUGUGGUAUAUUACCUGGUA [A31G G34C]
measured parameter: self-cleavage
endpoint result: 1.44

sequence record: GUCCUCUUUCACGUGCGCGUGAAAGGGAGAAGUGAACCAGAGAAAAACACGUUGUGGUAUAUUACCUGGUA [A26G C46A]
measured parameter: self-cleavage
endpoint result: 0.0799

sequence record: GUGCUCUUUCACGUGCGCGUGAAAGAGAGAAGUGAACCAGAGAAACACACGUUGUGGUAUAUUACCUGCUA [C3G G69C]
measured parameter: self-cleavage
endpoint result: 0.177

sequence record: GUCCUUUUUCACGUGCGCGUGAAAGAGAGAAGUGAACCAGAGAAACACACGUUGUGGUAUAUUACCUGGCA [C6U U70C]
measured parameter: self-cleavage
endpoint result: 0.901

sequence record: GUCCUCUUUCACAUGAGCGUGAAAGAGAGAAGUGAACCAGAGAAACACACGUUGUGGUAUAUUACCUGGUA [G13A C16A]
measured parameter: self-cleavage
endpoint result: 0.82

sequence record: GUCCUCUUUCACGUGCGCGUGAAAGAGAGAAGUGAACCAGAGAAACACAUUUUGUGGUAUAUUACCUGGUA [C50U G51U]
measured parameter: self-cleavage
endpoint result: 0.424

sequence record: GUCCUCUUUCACGUGCGCGUGAAAGAGACAAGUGAACCAGAGAAACACACGUCGUGGUAUAUUACCUGGUA [G29C U53C]
measured parameter: self-cleavage
endpoint result: 0.252

sequence record: GUCCUCUAUCACGUGCGCGUGAAAGAGAGAAGUGAACUAGAGAAACACACGUUGUGGUAUAUUACCUGGUA [U8A C38U]
measured parameter: self-cleavage
endpoint result: 0.357

sequence record: GUCCUCUUUCACGUGCGCGUGAAAGAGAGAAGUGAACCAGAGAAACACACGUUGUGGUAUAAUACCUAGUA [U62A G68A]
measured parameter: self-cleavage
endpoint result: 0.187

sequence record: GUCCUCUUUCACGUGCGCGGGAAAGAGAGAAGUGAACCAGAGAAACACACGUUGUGGUAUAUUACCUGGUG [U20G A71G]
measured parameter: self-cleavage
endpoint result: 0.971

sequence record: GUCCUCUUUCACGUGCGCGUGAAAGAGAGAAGUGAACCCGAUAAACACACGUUGUGGUAUAUUACCUGGUA [A39C G42U]
measured parameter: self-cleavage
endpoint result: 0.11

sequence record: GUCCUCUUUCACGUGCGCGUGAAAGAGAGAAGUGAACCAGAGAAACUCACGUUGUGGUAUACUACCUGGUA [A47U U62C]
measured parameter: self-cleavage
endpoint result: 0.264

sequence record: GUCCUCUUUCACGUGGGCGUGAAAGAGAGAAGUGAACCAGAGAAACACACGUUGUGGUCUAUUACCUGGUA [C16G A59C]
measured parameter: self-cleavage
endpoint result: 0.17

sequence record: GUCCUCUUUCACGUGCGCGUGAAAGAGAGAAGUGGACCAGGGAAACACACGUUGUGGUAUAUUACCUGGUA [A35G A41G]
measured parameter: self-cleavage
endpoint result: 0.814

sequence record: GUCCUCUUUCAGGUGCGCGUGAAAGAGAGAAGUGAACCAGAGAAACACACGUUGUGGUAUAUUACAUGGUA [C12G C66A]
measured parameter: self-cleavage
endpoint result: 0.171

sequence record: GUCCUCUUUCACGUGCACGUGAAAGAGAGAAGUGAACCAGAGAAACACACGUUGUGGAAUAUUACCUGGUA [G17A U58A]
measured parameter: self-cleavage
endpoint result: 0.709

sequence record: GUCCUCUUUCACGUGCGCGUGAAAGAGAGAAGUCAACCAAAGAAACACACGUUGUGGUAUAUUACCUGGUA [G34C G40A]
measured parameter: self-cleavage
endpoint result: 0.576

sequence record: GUCCUCUUUCACGAUCGCGUGAAAGAGAGAAGUGAACCAGAGAAACACACGUUGUGGUAUAUUACCUGGUA [U14A G15U]
measured parameter: self-cleavage
endpoint result: 1.17

sequence record: GUCCUCUUUCACGUGCGCGUUAAAGAGAGAAGUGAACCAGAGAAACACACUUUGUGGUAUAUUACCUGGUA [G21U G51U]
measured parameter: self-cleavage
endpoint result: 0.992

sequence record: GUCCUCUUUCACGUGCGCGUGAAAGAGAGAAGUGAACCAGACAAACACACGUUGGGGUAUAUUACCUGGUA [G42C U55G]
measured parameter: self-cleavage
endpoint result: 0.173

sequence record: UUCCUCUUUCACGUGCGCGUGAAAGAGAGAAGUGAACCAGAGAAACACACGAUGUGGUAUAUUACCUGGUA [G1U U52A]
measured parameter: self-cleavage
endpoint result: 0.0595

sequence record: GUCAUCUUUCACGUGCGCGUGAAAGAGAGAAGUGAACCAGAGAAACACACGUUGAGGUAUAUUACCUGGUA [C4A U55A]
measured parameter: self-cleavage
endpoint result: 0.163

sequence record: GUCCUCUUUCACGUGCGCGUGAAAGAGAGAAGUGAACCAGAGAAGCACACGUUGUGGCAUAUUACCUGGUA [A45G U58C]
measured parameter: self-cleavage
endpoint result: 0.269

sequence record: GUCCUCUUUCACGUGCGCGUGAAACAGAGAAGUGAACCAGAGAAACACAGGUUGUGGUAUAUUACCUGGUA [G25C C50G]
measured parameter: self-cleavage
endpoint result: 0.178

sequence record: GUCCUCUUUCACGUGCCCGUGAAAGAGAGAAGUGAACCAGAGAAACACACGUUGUGGAAUAUUACCUGGUA [G17C U58A]
measured parameter: self-cleavage
endpoint result: 0.453

sequence record: GUCCUCUUUCACGUGCGCGUCAAAGAGAGAAGUGAACCAGAGAAACACACGUUGUGGGAUAUUACCUGGUA [G21C U58G]
measured parameter: self-cleavage
endpoint result: 0.647

sequence record: GUCCUCUUUCACGUGCGCGUGAAAGAGAGAAGUGAAUCAGAGAAACACACGUUGUGGUAUAGUACCUGGUA [C37U U62G]
measured parameter: self-cleavage
endpoint result: 0.166
